Ref: BigSolDB 2.1

conditions: in n-propanol, 283.15 K
readout.name: solubility (mole fraction)

The recorded solubility (mole fraction) for entry O=c1[nH]c2ccccc2n1CCCN1CCC(n2c(=O)[nH]c3cc(Cl)ccc32)CC1 equals 1.45e-05

---

settings: in n-propanol, 288.15 K
readout.name: solubility (mole fraction)
No unit in the answer, please; the number alone is enough.

The recorded solubility (mole fraction) for entry O=c1[nH]c2ccccc2n1CCCN1CCC(n2c(=O)[nH]c3cc(Cl)ccc32)CC1 equals 1.9e-05

---

settings: in isopropanol, 283.15 K
readout.name: solubility (mole fraction)
No unit in the answer, please; the number alone is enough.

The recorded solubility (mole fraction) for entry O=c1[nH]c2ccccc2n1CCCN1CCC(n2c(=O)[nH]c3cc(Cl)ccc32)CC1 equals 9.92e-06
